Source listed as PubChem BioAssay AID463173.

- System: Wild type
- ASSAY_PROCEDURE: S. aureus survival, RN4220 and DeltatarO strains – OD600, teichoic acid synthesis inhibitors, primary screen (AID 463173)
- CONDITIONS: S. aureus RN4220 wild type/DeltatarO growth, OD600, 18 h, stronger effect = lower value, screened at 18.75 µg/mL (by protocol)
The campaign covered roughly 52,000 compounds. About 1,700 (3.3%) were called active. Shown is part of a subset that was picked to be rich in actives.
Below is a list of entries, each paired with its recorded survival value.

Use the examples below as a reference point.
Cc1cc(C(F)F)n2nc(C(=O)Nc3ccc(F)c(Cl)c3)nc2n1 83% (inactive)
Cc1ccc(C)c(NC(=O)CN(Cc2ccccc2)S(=O)(=O)c2ccc3nc(C)sc3c2)c1 66% (inactive)
Cc1ccc(NC(=O)CSc2nnc3nc(C)cc(C)n23)cc1 73% (inactive)
CCCCN(C(=O)CCn1c(=O)oc2ccccc21)c1ccccc1 71% (inactive)
COc1ccc(CCNC(=O)CCCCn2c(=O)c3ccccc3n(Cc3ccc(Cl)cc3)c2=O)cc1OC 105% (inactive)
Cc1ccc(C)c(CNC(=O)C2CCN(c3nc4ccccc4nc3C(F)(F)F)CC2)c1 88% (inactive)
COc1ccccc1-c1c(C)nn2c(N3CCN(c4ccccc4)CC3)cc(C)nc12 70% (inactive)
COC(=O)c1sc(NC(=O)/C=C/c2ccc(OC)c(OC)c2)c(C(=O)OC)c1C 55% (inactive)
CCOc1ccc(CCNC(=O)c2cc3cc4cc(OC)ccc4nc3s2)cc1OCC 117% (inactive)

Query: Could you share which survival value was measured for `O=C(NCCS(=O)(=O)N1CCN(c2ccc(F)cc2)CC1)c1cccc(C(F)(F)F)c1` ?
Reply: 72% (inactive)
